system: T1, human MSLN-R3-his protein (human, UniProt Q13421 487-598)
T1 construct: it is put last here; also called human MSLN-R3 protein; hMSLN-R3-his; not shown: His tag
T1 sequence (Q13421 495-606): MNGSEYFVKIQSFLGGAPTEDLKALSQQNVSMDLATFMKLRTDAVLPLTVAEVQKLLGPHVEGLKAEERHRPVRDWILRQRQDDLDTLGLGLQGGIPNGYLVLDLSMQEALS
assay.method.text: ELISA on coated antigen, antibody 0.02 nM
recorded.endpoint: OD450

OD450 measured on S009-F7.2.3 (antibody, human IgG1, kappa, V domains shown, Human-murine chimeric antibody, human IgG1 heavy and kappa light constant regions) VH: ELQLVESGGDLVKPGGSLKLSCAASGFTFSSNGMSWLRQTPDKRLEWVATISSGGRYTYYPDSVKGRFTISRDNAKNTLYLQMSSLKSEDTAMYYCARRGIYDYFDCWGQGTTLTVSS VL: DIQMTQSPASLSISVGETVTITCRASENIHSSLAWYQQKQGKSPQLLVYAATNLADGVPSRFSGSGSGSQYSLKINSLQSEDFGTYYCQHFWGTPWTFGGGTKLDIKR = 0.06 OD

OD450 measured on S009-F7.44.20 (antibody, human IgG1, kappa, V domains shown, Human-murine chimeric antibody, human IgG1 heavy and kappa light constant regions) VH: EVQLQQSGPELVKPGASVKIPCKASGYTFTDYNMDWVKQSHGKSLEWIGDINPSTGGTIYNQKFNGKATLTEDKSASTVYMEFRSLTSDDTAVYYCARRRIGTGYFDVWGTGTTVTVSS VL: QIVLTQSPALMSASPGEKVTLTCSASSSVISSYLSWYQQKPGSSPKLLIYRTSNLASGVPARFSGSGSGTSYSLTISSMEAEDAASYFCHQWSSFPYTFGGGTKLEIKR = 0.9 OD

OD450 measured on S009-F7.53.2 (antibody, human IgG1, kappa, V domains shown, Human-murine chimeric antibody, human IgG1 heavy and kappa light constant regions) VH: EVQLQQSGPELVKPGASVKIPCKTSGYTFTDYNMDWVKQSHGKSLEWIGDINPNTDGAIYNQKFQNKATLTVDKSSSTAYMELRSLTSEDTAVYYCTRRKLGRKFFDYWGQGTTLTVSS VL: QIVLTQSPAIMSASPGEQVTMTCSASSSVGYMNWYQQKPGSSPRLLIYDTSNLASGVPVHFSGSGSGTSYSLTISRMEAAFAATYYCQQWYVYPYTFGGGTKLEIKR = 0.14 OD
